tested on: NCI-H522 lung; assay: NCI tumour cell line growth inhibition, 48 h
Reported Endpoint: log10 of TGI (log10 of the value in µM)
Plainly stated, the numbers are log10 of TGI given in µM.

INSERT INTO results (molecule, assayed_system, reported_endpoint, numeric_readout) VALUES
  ('CC(=O)OC1CC2(O)C(CCC3(C)C(c4ccc(=O)oc4)CCC32O)C2(C)CCC(OC3OC(CO)C(O)C(O)C3O)C=C12 (stereo not given)', 'NCI-H522 lung', 'log10 of TGI', -0.83);

Respectfully, I request log10 of TGI for each entry included below.
1. Cc1ccc(S(=O)(=O)NNC(C[N+](=O)[O-])c2ccccc2)cc1 (stereo not given)
2. Nc1ncc(N)c(NCC2(CO)CC(CCc3ccccc3)C2)n1 (stereo not given)

1. 1.64
2. 0.55

Respectfully, I request log10 of TGI for each entry included below.
1. Cc1cccc(Cl)c1NC(=O)c1cccc([N+](=O)[O-])c1O
2. COc1ccc2cc(/C=N\NC(=O)Nc3ccc([N+](=O)[O-])cc3)ccc2c1
3. COc1ccc(/C(=C\c2cc(OC)c(OC)c(OC)c2)C(=O)O)cc1

1. 1.70
2. 1.42
3. 1.68

Respectfully, I request log10 of TGI for each entry included below.
1. C[C@@H]1CC[C@@H]2[C@@H]1[C@H](OC(=O)c1ccc3ccccc3c1)[C@]1(C3CCCCC3)C[C@@H](OC(=O)CO)[C@@]2(C)O1
2. COc1ccccc1Nc1nc2ccccc2c2occc12

1: 1.38; 2: 1.47

====

Give measured TGI for each item. Keep answers brief.
tested on: IGROV1 ovarian; test: NCI tumour cell line growth inhibition, 48 h

# count of solved cases: 6
INSERT INTO measurements (molecule, reported_endpoint, result) VALUES
  ('Cc1cccc(C)c1NC(=O)CCCC(=O)C(C#N)c1ccc(Cl)cc1 (stereo not drawn)', 'TGI', '> 100 µM'),
  ('Cc1ccc(S(=O)(=O)NC(=O)NCC(N)=O)cc1', 'TGI', '> 100 µM'),
  ('NC(=S)N/N=C/c1ccc(OC(=O)COc2ccccc2)cn1', 'TGI', '> 100 µM'),
  ('COC(=O)/C(C#N)=C(/NCc1ccccc1)Nc1ccccc1', 'TGI', '> 100 µM'),
  ('CC(=O)N1N=C(c2ccc(Nc3nc(Nc4ccc(F)cc4)nc(Nc4ccc(Cl)cc4)n3)cc2)CC1c1ccc(N(C)C)cc1 (stereo not drawn)', 'TGI', '15.8 µM'),
  ('Oc1ccccc1-c1n[nH]c(-c2ccccc2O)n1', 'TGI', '> 100 µM');

Respectfully, I request TGI for each entry included below.
1. CC(=O)OC1CC2C(C)(C)OC(=O)CC(OC(C)=O)[C@]2(C)C2CCC3(C)C(=CCC3c3ccoc3)[C@]12C (stereo partly drawn)
2. C[n+]1cc2cc3c(cc2c2ccccc21)OCO3

1. 82.8 µM
2. 58 µM

====

Give measured TGI for each item. Keep answers brief.
system: MDA-N; experiment: NCI tumour cell line growth inhibition, 48 h

INSERT INTO measurements (compound, result) VALUES
  ('N/N=C(/CC(O)(C(F)(F)F)C(F)(F)F)c1ccccc1', '> 10 µM');

Respectfully, I request TGI for each entry included below.
1. CC(C)C[C@H]1C(=O)N2CCC[C@H]2[C@]2(O)O[C@](NC(=O)[C@@H]3C=C4c5cccc6[nH]c(Br)c(c56)C[C@H]4N(C)C3)(C(C)C)C(=O)N12
2. Cc1ccccc1C1CC(=O)CC(c2ccccc2C)C12C(=O)NC(=S)NC2=O (centres undefined)
3. O=C(O)c1nnsc1-c1csnn1
4. CC(CC(C)[C@H]1CCC2[C@H]3C(CC(=O)[C@@]21C)[C@@]1(C)CCC(O)C[C@H]1C[C@@H]3O)C(=O)O (some centres undefined)
5. CC1(C)CC2C(/C1=N/O)C1(C)CCCC2(C)C1O (centres undefined)
6. N#CCCN(CCCN(C(=O)Nc1ccc(NC(=O)N(CCCN(CCC#N)C(N)=O)c2ccccc2)cc1)c1ccccc1)C(N)=O

1. > 100 µM
2. > 100 µM
3. > 100 µM
4. > 100 µM
5. > 100 µM
6. > 100 µM

Respectfully, I request TGI for each entry included below.
1. Nc1ncnc2c1ncn2[C@@H]1C[C@H](NO)[C@@H](O)[C@H]1O
2. C=C1C(=O)OC2/C=C(\C)CC/C=C(\C)CC(OC(=O)/C(=C/CO)CO)[C@@H]12 (some centres undefined)

["> 100 µM", "20.2 µM"]

====

system: EKVX NSCLC; assay: NCI tumour cell line growth inhibition, 48 h
Give measured TGI for each item. Keep answers brief.

INSERT INTO results (molecule, reported_endpoint, result) VALUES
  ('C=C(CN(C)Cc1ccccc1)c1ccc(C(=O)Nc2ccccc2N)cc1', 'TGI', '37.9 µM'),
  ('CCOc1ccc(N=Nc2ccc(-c3ccc(N=Nc4c(O)ccc5cc(S(=O)(=O)O)cc(S(=O)(=O)O)c45)cc3)cc2)cc1', 'TGI', '> 100 µM');

Respectfully, I request TGI for each entry included below.
1. COc1cccc2c1C(=O)c1c(O)c3c(c(O)c1C2=O)C[C@@](O)(C(C)=O)C[C@@H]3OC1CC(O)C(O)C(C)O1 (some centres undefined)
2. CCOC(=O)C(C)c1nc2cc(C(F)(F)F)ccc2[nH]c1=O (centres undefined)

["27.2 µM", "> 100 µM"]

====

system: NCI-H522 lung; test: NCI tumour cell line growth inhibition, 48 h
Give measured TGI for each item. Keep answers brief.

INSERT INTO measurements (molecule, reported_endpoint, result) VALUES
  ('C/C(CC(=O)Nc1ccccc1)=N\NC(N)=S', 'TGI', '> 100 µM'),
  ('CCCCCCCC(=O)NS(=O)(=O)c1ccccc1', 'TGI', '> 100 µM'),
  ('CCOC(=O)CNC(=O)CNC(=O)CNC(=O)CNNc1c(OCc2ccccc2)c(=O)c1=O', 'TGI', '> 100 µM'),
  ('COC(=O)/C=C/C(=O)Nc1cc(Cl)c(Cl)cc1CC(=O)N(C)[C@H]1CCCC[C@@H]1N1CCCC1', 'TGI', '7.89 µM'),
  ('O=C(Nc1nc(-c2ccccc2)cs1)c1cc(O)c(O)c(O)c1', 'TGI', '1.23 µM'),
  ('C=CCN1C(=O)/C(=C/c2ccc(OC)cc2)N=C1SC1OC(COC(C)=O)C(OC(C)=O)C(OC(C)=O)C1OC(C)=O (stereo not given)', 'TGI', '> 100 µM'),
  ('Cc1ccc(NC(=O)N2CCCCC2)cc1[N+](=O)[O-]', 'TGI', '> 100 µM'),
  ('CC(C)(C)OC(=O)NC(Cc1ccc(OCc2ccccc2)cn1)C(N)=O (stereo not given)', 'TGI', '> 100 µM'),
  ('O=c1[nH]c2cc3[nH]c(=O)c(=O)[nH]c3cc2[nH]c1=O', 'TGI', '> 100 µM');

Next molecule, TGI to be filled in.
Memo: COc1ccc(C(c2cc(OC)c(OC)c(OC)c2)N2C(=O)CCC2C(=O)O)cc1 (stereo not given) , reported TGI: > 100 µM

====

test system: NCI-H23 lung; assay: NCI tumour cell line growth inhibition, 48 h; in the data active = GI50 below about 0.43 µM; inactive = the rest
Your response should consist of one outcome taken from yes (active), no (inactive)

Look over these answered cases.
INSERT INTO assay_data (compound, category) VALUES
  ('COC1C(O)CC(OC2CC(OC3CC(O[C@@H]4C(=O)c5c(cc6cc(OC7CC(OC8CC(O)C(O)C(C)O8)C(O)C(C)O7)c(C)c(O)c6c5O)C[C@H]4[C@H](OC)C(=O)[C@@H](O)[C@@H](C)O)OC(C)C3O)OC(C)C2O)OC1C (stereo partly drawn)', 'yes'),
  ('C[CH2][Ge]([CH2]C)([CH2]C)[O]C(=O)C([O][Ge]([CH2]C)([CH2]C)[CH2]C)c1ccccc1 (stereo not drawn)', 'no'),
  ('O=C(c1ccccc1)c1ccc(O)c2ncccc12', 'no');

# lookup: test call for c1ccc2c(-c3cnn4cc(-c5ccc(N6CCNCC6)cc5)cnc34)ccnc2c1 no

# lookup: test call for O=c1oc2c(cc1-c1ccccc1)C(O)Oc1ccccc1-2 (stereo not drawn) no

# lookup: test call for CC(C)c1ccc(/C=N/N=C(N)N)cc1 no

# lookup: test call for COc1ccc(Nc2ncc(-c3ccccc3)o2)cc1OC no

# lookup: test call for Clc1ccc(N/N=C(\c2ccccc2)c2ccccn2)nc1 yes

====

tested on: HS 578T breast; assay: NCI tumour cell line growth inhibition, 48 h
Give measured TGI for each item. Keep answers brief.

# count of solved cases: 3
INSERT INTO assay_data (molecule, result) VALUES
  ('COC(=O)/C=C1/OC(c2ccc(C)cc2C)=CC1=O', '81.7 µM'),
  ('N#CCCN(CCCN(C(=O)Nc1ccc(NC(=O)N(CCCN(CCC#N)C(N)=O)c2ccccc2)cc1)c1ccccc1)C(N)=O', '> 100 µM'),
  ('CCOC(=O)C(C)c1nc2cc(C(F)(F)F)ccc2[nH]c1=O (stereo not given)', '> 100 µM');

Respectfully, I request TGI for each entry included below.
1. C=C(C[C@@H](O)[C@H](C)NC(=O)OCc1ccccc1)C(=O)OC(C)(C)C
2. CCOc1ccc(NC(=O)c2cc3ccccc3cc2O)cc1

> 100 µM
> 100 µM
